# target: KRAS-G12D and SOS1 (Homo sapiens, UniProt P01116, G12D)
# Sequence (P01116 1-188 isoform P01116-2 G12D): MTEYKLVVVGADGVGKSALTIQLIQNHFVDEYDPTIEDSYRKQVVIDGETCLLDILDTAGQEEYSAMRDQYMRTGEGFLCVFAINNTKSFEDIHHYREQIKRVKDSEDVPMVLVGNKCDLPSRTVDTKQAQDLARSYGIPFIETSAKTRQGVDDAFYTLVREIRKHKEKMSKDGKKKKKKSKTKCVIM
# protocol-description: Inhibition of KRAS-G12D/SOS1 binding (Cisbio binding kit, 665/615 ratio), Effect Embodiment A
# cond: read-out: GTP-KRAS-G12D:SOS1 IC50
Structures can show the parent of a compound that is named as a salt.
Known IC50 of a selection of compounds
Kindly report the value followed by its unit.

Some entries whose results are on file:
// C[C@H]1C[C@@H](COc2nc(N3CC4CCC(C3)N4)c3cc(Cl)c(-c4cc(O)cc5ccccc45)c(F)c3n2)N(C)C1 (single isomer, unassigned) : IC50 value = 15.3 nM

// Oc1cc(-c2c(Cl)cc3c(N4CC5CCC(C4)N5)nc(OCCCN4CCCCC4)nc3c2F)c2ccccc2c1 (single isomer, unassigned) [Compound 66a] : IC50 value = 38.3 nM

Continue with the next compound.
// CCCCN(C)CCCOc1nc(N2CC3CCC(C2)N3)c2cc(Cl)c(-c3cc(O)cc4ccccc34)c(F)c2n1 (single isomer, unassigned) [Compound 113, hydrochloride] : IC50 value = 51.8 nM
